// provenance: ChEMBL document CHEMBL4382197

pIC50 tested on Bromodomain-containing protein 4 (Homo sapiens, UniProt O60885): recorded values
pIC50: −log10 of the molar value.
Parameter Measured: pIC50

{"columns": ["Structure Smiles String", "pIC50"],
 "data": [
  ["Cc1nnc2n1-c1scc(Cc3ccccc3)c1COC2", 5.64],
  ["Cc1nnc2n1-c1sc(C3CCOCC3)c(Cc3ccccc3)c1COC2", 5.09]
]}

a = Cc1sc2c(c1C)COCc1nnc(C)n1-2
b = Cc1nnc2n1-c1sc(C#N)c(Cc3ccccc3)c1COC2
Data request: Dear colleague, could you let me know whether a or b has the lower recorded pIC50? Thanks. Response format: the label of the selected entry.
Data returned: a
(a: 5.36, b: 6.14)

###

Ki tested on Bromodomain-containing protein 4 (Homo sapiens, UniProt O60885): recorded values
Parameter Measured: Ki (µM)

{"columns": ["Structure Smiles String", "System Under Test", "Readout Unit", "Recorded Number"],
 "data": [
  ["Cc1nnc2n1-c1sc(C#N)c(Cc3ccccc3)c1COC2", "Bromodomain-containing protein 4 (Homo sapiens, UniProt O60885)", "µM", 0.25],
  ["Cc1nnc2n1-c1scc(Cc3ccccc3)c1COC2", "Bromodomain-containing protein 4 (Homo sapiens, UniProt O60885)", "µM", 0.82]
]}

I = Cc1nnc2n1-c1sc(C3CCOCC3)c(Cc3ccccc3)c1COC2
II = Cc1sc2c(c1C)COCc1nnc(C)n1-2
Data request: Dear colleague, could you let me know whether I or II has the lower recorded Ki? Thanks. Response format: the label of the selected entry.
Data returned: II
(II: 1.5 µM, I: 2.8 µM)
